Answer each item with its documented Plant response rating, Horseweed.
Test system: horseweed
Assay: Test A postemergence
Type: in vivo, Erigeron canadensis
Conditions: 1000 g ai/ha, Postemergence; 0 to 100 scale
# output: bare number, no unit

Provide Plant response rating, Horseweed value for the following compound: Cc1ccc(-n2cncn2)cc1C(=O)N1CC(C)Oc2c(Cl)cccc21 (centres unmarked) [Compound 33] 30

Provide Plant response rating, Horseweed value for the following compound: C[C@H]1CN(C(=O)c2cccc(-n3cncn3)c2)c2cc([N+](=O)[O-])ccc2O1 [Compound 49] 0

Provide Plant response rating, Horseweed value for the following compound: Cc1cccc2c1O[C@@H](C)CN2C(=O)c1cccc(-n2cc(Cl)cn2)c1 [Compound 132] 0

Provide Plant response rating, Horseweed value for the following compound: Cc1cccc2c1O[C@@H](C)CN2C(=O)c1cccc(-n2cc(F)cn2)c1 [Compound 131] 0

Provide Plant response rating, Horseweed value for the following compound: Cc1csc(-c2cccc(C(=O)N3C[C@H](C)Oc4c(Cl)cccc43)c2)n1 [Compound 124] 0
